MEASUREMENT_TARGET: C-X-C chemokine receptor type 4 (Homo sapiens, UniProt P61073)
Sequence (P61073 whole entry): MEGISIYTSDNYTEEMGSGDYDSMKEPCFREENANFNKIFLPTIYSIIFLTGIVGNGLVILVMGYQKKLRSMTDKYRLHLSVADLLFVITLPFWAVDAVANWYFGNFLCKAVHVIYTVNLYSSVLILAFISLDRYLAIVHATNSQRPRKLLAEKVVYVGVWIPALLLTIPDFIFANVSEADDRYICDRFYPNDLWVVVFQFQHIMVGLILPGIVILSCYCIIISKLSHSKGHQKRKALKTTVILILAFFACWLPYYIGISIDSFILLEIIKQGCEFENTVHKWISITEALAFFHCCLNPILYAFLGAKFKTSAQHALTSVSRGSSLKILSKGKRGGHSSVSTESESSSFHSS
ASSAY_COMMENT: Antagonist activity at CXCR4 in human HPBALL cells assessed as inhibition of APC-conjugate clone 12G5 antibody signal incubated for 3 hrs by flow cytometric analysis
Type: cell-based
pIC50: −log10 of the molar value.
Classify as follows. Reported pIC50 greater than or equal to 7: y. Reported pIC50 below: n.

CN1CCN(c2cc(CN(C)C3CCCc4cccnc43)nc(N3CCCC3)n2)CC1 (racemic) : n

INPUT: In plain terms: is recorded pIC50 at least 7 for Cc1nc(CN(CC2CC2)C2CCCc3cccnc32)cc(N2CCN(C)CC2)n1 (racemic) ?
OUTPUT: y

INPUT: In plain terms: is recorded pIC50 at least 7 for CN1CCN(c2cc(CN(C)C3CCCc4cccnc43)nc(-c3ccccc3)n2)CC1 (racemic) ?
OUTPUT: n

INPUT: In plain terms: is recorded pIC50 at least 7 for Cc1nc(CN(C)[C@H]2CCCc3cccnc32)cc(N2CCN(C)[C@H](C)C2)n1 ?
OUTPUT: y

INPUT: In plain terms: is recorded pIC50 at least 7 for Cc1nc(CN(C)[C@H]2CCCc3cccnc32)cc(N(C)CCO)n1 ?
OUTPUT: n

INPUT: In plain terms: is recorded pIC50 at least 7 for CCN1CCN(c2cc(CN(C)[C@H]3CCCc4cccnc43)nc(C)n2)CC1 ?
OUTPUT: y

INPUT: In plain terms: is recorded pIC50 at least 7 for Cc1nc(CN(C)C2CCCc3cccnc32)c(F)c(N2CCN(C)CC2)n1 (racemic) ?
OUTPUT: y

INPUT: In plain terms: is recorded pIC50 at least 7 for CCc1nc(CN(C)C2CCCc3cccnc32)cc(N2CCN(C)CC2)n1 (racemic) ?
OUTPUT: y
